B1: NF2 (merlin) isoform 7, human, full length (507 aa, lacks exons 2-3 = isoform-1 residues 39-121; exon-16 C-terminus), P35240-4 (parent)
chain: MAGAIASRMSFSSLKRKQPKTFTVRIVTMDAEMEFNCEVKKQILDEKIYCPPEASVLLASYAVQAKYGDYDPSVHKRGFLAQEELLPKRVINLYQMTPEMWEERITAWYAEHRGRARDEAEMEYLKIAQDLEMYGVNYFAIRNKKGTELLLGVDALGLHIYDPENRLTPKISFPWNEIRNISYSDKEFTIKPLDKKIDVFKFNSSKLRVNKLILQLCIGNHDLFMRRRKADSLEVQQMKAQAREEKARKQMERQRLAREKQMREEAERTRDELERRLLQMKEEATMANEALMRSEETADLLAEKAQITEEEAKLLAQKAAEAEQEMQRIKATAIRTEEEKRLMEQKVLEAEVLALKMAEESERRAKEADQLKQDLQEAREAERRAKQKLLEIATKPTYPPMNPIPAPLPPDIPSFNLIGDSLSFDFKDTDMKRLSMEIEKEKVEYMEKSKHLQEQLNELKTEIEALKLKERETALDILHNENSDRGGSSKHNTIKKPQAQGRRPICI

# Variants of: B1
# protocol: reverse yeast two-hybrid deep mutational scan (rY2H-seq): NF2 isoform 7 mutant library as bait mated with wild-type prey strains; selection on medium lacking adenine for non-interacting pairs; NextSeq paired-end sequencing; enrichment vs …
# conditions_used: with NF2 C-terminal domain (wild type; homomeric NF2-NF2 interaction), P35240; yeast diploids after mating (RBait_S3 x RPrey_S3), 30 °C, selection for reporter genes on NB agar; human ABL2 co-expressed as the kinase-dead K35M mutant …; HIGHER = WEAKER BINDING (the opposite of display enrichments): higher = stronger loss of interaction: reverse Y2H selects yeast in which bait and prey do NOT interact (growth without adenine), so a …; hits-only table; partner unresolved; scale: rY2H score; numbering: uniprot, sequence starts at 1
outcome_measure: enrichment
Reply with the value as a number alone.

Reported enrichment for Y61K was 1.84

Reported enrichment for L353K was 3.06

Reported enrichment for A322E was 2.97

Reported enrichment for H491K was 2.48

Reported enrichment for R364K was 2.52

Reported enrichment for L342E was 1.9

Reported enrichment for E339K was 1.45

Reported enrichment for K395S was 2.15

Reported enrichment for A378K was 4.21

Reported enrichment for H75E was 2.7

Reported enrichment for F415E was 2.37

Reported enrichment for I178K was 2.57

Reported enrichment for F424E was 27.7

Reported enrichment for L434R was 1.58

Reported enrichment for K191Y was 1.46

Reported enrichment for K496S was 1.44

Reported enrichment for A331E was 1.53

Reported enrichment for R384A was 2.38

Reported enrichment for Q236A was 2.27

Reported enrichment for A385K was 3.03

Reported enrichment for N176L was 10.6

Reported enrichment for N457E was 2.32

Reported enrichment for L151S was 12.3

Reported enrichment for N482E was 1.99

Reported enrichment for R363L was 2.55
